- TARGET OR SYSTEM: T1, interleukin 18 binding protein (IL-18BP) (UniProt O95998 31-194); further: unit not given here
- T1 sequence (looked up): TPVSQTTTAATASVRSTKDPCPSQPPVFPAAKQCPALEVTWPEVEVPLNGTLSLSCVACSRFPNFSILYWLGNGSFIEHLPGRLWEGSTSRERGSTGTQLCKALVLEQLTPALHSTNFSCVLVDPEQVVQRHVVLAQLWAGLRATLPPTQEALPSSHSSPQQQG
- ASSAY NOTES: cell-based or functional assay
Answer each item with its documented HEK-Blue activity, +100 nM BP, DF-100,000.

The value of HEK-Blue activity, +100 nM BP, DF-100,000 measured for the binder IL-18 variant K53H, S55I (ligand) YFGKLESKLSVIRNLNDQVLFIDQGNRPLFEDMTDSDMRDNAPRTIFIISMYHDIQPRGMAVTISVKSEKISTLSSENKIISFKEMNPPDNIKDTKSDIIFFQRSVPGHDNKMQFESSSYEGYFLASEKERDLFKLILKKEDELGDRSIMFTVQNED turned out to be 0.11

The value of HEK-Blue activity, +100 nM BP, DF-100,000 measured for the binder IL-18 variant K53H, S55Y (ligand) YFGKLESKLSVIRNLNDQVLFIDQGNRPLFEDMTDSDMRDNAPRTIFIISMYHDYQPRGMAVTISVKSEKISTLSSENKIISFKEMNPPDNIKDTKSDIIFFQRSVPGHDNKMQFESSSYEGYFLASEKERDLFKLILKKEDELGDRSIMFTVQNED turned out to be 0.1
